The reported numbers originate from patent US20230399312A1.

Recorded IC50 by entry
System: TGF-β-stimulated SMAD3 phosphorylation in BEAS-2B cells
Experiment: Cellular ALK5 potency assay, inhibition of TGF-β stimulated pSMAD3 formation in BEAS-2B cells
Format: cell-based
Measurement context: Homo sapiens, pSMAD3, TGF-β 10 ng/mL, read-out: BEAS2B pIC50 (converted)

# annotated cases, reported IC50 shown
{"Molecule": "Cc1cccc(-c2nccc(Nc3ccnc(Nc4cccc(CN5C[C@@H](C)N[C@@H](C)C5)c4)n3)n2)n1 [Compound 519]", "Meas value": "25.1 to 158 nM"}
{"Molecule": "Cc1cccc(-c2nccc(Nc3ccnc(Nc4nc(C(=O)NC5CNC5)cs4)n3)n2)n1 [Compound 44]", "Meas value": "25.1 to 158 nM"}
{"Molecule": "Cc1cccc(-c2nccc(Nc3ccnc(Nc4ccc(N5C[C@H]6CC[C@@H](C5)N6)cc4)n3)n2)n1 [Compound 34]", "Meas value": "25.1 to 158 nM"}
{"Molecule": "Cc1cccc(-c2nccc(Nc3ccnc(Nc4ccc(N5CCNCC5CC(=O)OCC5CNC5)cc4)n3)n2)n1 (stereo not shown) [Compound 402]", "Meas value": "200 to 1260 nM"}

In: Please state recorded IC50 (tested on TGF-β-stimulated SMAD3 phosphorylation in BEAS-2B cells) of Cc1cccc(-c2nccc(Nc3ccnc(Nc4ccc(S(N)(=O)=O)cn4)n3)n2)n1 [Compound 119]
Out: 25.1 to 158 nM

In: Please state recorded IC50 (tested on TGF-β-stimulated SMAD3 phosphorylation in BEAS-2B cells) of Cc1cccc(-c2nccc(Nc3ccnc(Nc4cc(C(=O)O)ccn4)n3)n2)n1 [Compound 636]
Out: 1580 to 10000 nM

In: Please state recorded IC50 (tested on TGF-β-stimulated SMAD3 phosphorylation in BEAS-2B cells) of Cc1cccc(-c2nccc(Nc3ccnc(Nc4csc(C(=O)OC5CCNCC5)c4)n3)n2)n1 [Compound 591]
Out: 25.1 to 158 nM
